Provenance of the data: patent US5776903A

molecular target: endopeptidase 24-15 (Rattus norvegicus); experiment: Inhibition of neurotensin degradation by purified endopeptidase 24-15 (HPLC), inhibition constant Ki; conditions: selectivity relative to endopeptidase 24-16
Sequence (P24155 whole entry): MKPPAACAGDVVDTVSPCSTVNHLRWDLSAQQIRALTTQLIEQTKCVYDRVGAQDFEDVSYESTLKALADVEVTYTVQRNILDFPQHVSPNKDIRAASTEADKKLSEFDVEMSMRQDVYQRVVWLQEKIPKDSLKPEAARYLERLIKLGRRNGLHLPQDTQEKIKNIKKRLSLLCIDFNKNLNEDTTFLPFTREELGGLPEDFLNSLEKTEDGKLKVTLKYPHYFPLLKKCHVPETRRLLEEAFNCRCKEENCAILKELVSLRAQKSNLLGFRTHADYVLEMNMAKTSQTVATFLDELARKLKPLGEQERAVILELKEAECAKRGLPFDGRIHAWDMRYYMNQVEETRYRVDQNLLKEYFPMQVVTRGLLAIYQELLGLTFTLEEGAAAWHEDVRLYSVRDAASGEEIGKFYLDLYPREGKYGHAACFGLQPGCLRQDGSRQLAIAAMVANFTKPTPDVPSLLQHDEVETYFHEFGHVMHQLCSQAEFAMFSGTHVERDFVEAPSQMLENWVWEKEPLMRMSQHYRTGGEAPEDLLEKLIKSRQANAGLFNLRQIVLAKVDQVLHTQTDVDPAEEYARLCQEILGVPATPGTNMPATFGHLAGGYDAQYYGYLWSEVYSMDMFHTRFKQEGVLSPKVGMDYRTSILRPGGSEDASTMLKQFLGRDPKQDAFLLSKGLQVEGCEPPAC
Classification field: Y = SELECTIVITY (ratio Ki24-16 /Ki24-15) at or over 100; N = SELECTIVITY (ratio Ki24-16 /Ki24-15) under 100.

Answered examples (5):
Challenge: Answer whether SELECTIVITY (ratio Ki24-16 /Ki24-15) of N=C(N)NCCC[C@H](NC(=O)CCP(=O)(O)C(Cc1ccccc1)NC(=O)OCc1ccccc1)C(=O)N[C@@H](CCC(=O)O)C(=O)O (mixture of isomers) is greater than or equal to 100.
Response given: N

Challenge: Answer whether SELECTIVITY (ratio Ki24-16 /Ki24-15) of N=C(N)NCCC[C@H](NC(=O)CCP(=O)(O)C(Cc1ccccc1)NC(=O)OCc1ccccc1)C(=O)N[C@@H](Cc1c[nH]cn1)C(=O)O (mixture of isomers) is greater than or equal to 100.
Response given: Y

Challenge: Answer whether SELECTIVITY (ratio Ki24-16 /Ki24-15) of CC(C)CC(CP(=O)(O)C(Cc1ccccc1)NC(=O)OCc1ccccc1)C(=O)N[C@@H](CCCNC(=N)N)C(=O)N[C@@H](Cc1ccccc1)C(=O)O (mixture of isomers) is greater than or equal to 100.
Response given: Y

Challenge: Answer whether SELECTIVITY (ratio Ki24-16 /Ki24-15) of N=C(N)NCCC[C@H](NC(=O)CCP(=O)(O)C(Cc1ccccc1)NC(=O)OCc1ccccc1)C(=O)N[C@@H](CC(=O)O)C(=O)O (mixture of isomers) is greater than or equal to 100.
Response given: N

Challenge: Answer whether SELECTIVITY (ratio Ki24-16 /Ki24-15) of CSCC[C@H](NC(=O)[C@H](CCCNC(=N)N)NC(=O)C(C)CP(=O)(O)C(Cc1ccccc1)NC(=O)OCc1ccccc1)C(=O)O (mixture of isomers) is greater than or equal to 100.
Response given: Y

More entries:
Challenge: Answer whether SELECTIVITY (ratio Ki24-16 /Ki24-15) of N=C(N)NCCC[C@H](NC(=O)CCP(=O)(O)C(Cc1ccccc1)NC(=O)OCc1ccccc1)C(=O)N[C@@H](Cc1ccccc1)C(=O)O (mixture of isomers) is greater than or equal to 100.
Response given: Y

Challenge: Answer whether SELECTIVITY (ratio Ki24-16 /Ki24-15) of N=C(N)NCCC[C@H](NC(=O)CCP(=O)(O)C(Cc1ccccc1)NC(=O)OCc1ccccc1)C(=O)N[C@@H](Cc1ccc(O)cc1)C(=O)O (mixture of isomers) is greater than or equal to 100.
Response given: Y

Challenge: Answer whether SELECTIVITY (ratio Ki24-16 /Ki24-15) of CC(C)C[C@H](NC(=O)[C@H](CCCCN)NC(=O)C(C)CP(=O)(O)C(Cc1ccccc1)NC(=O)OCc1ccccc1)C(=O)O (mixture of isomers) is greater than or equal to 100.
Response given: Y
